B1: Hairpin Ribozyme (parent)
chain: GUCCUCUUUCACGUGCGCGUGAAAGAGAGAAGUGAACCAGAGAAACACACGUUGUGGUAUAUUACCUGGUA

- Variants of: B1
- Assay Overview: self-cleavage, relative activity (ratio to wild type); higher = more cleavage; co-transcriptional
Would you please tag the item 1 (yes) when its self-cleavage is 0.2 or above, and 0 (no) when it is below?

INSERT INTO results (mutations, class_assignment) VALUES
  ('G1A C4U', '1 (yes)');

Ask: I'd appreciate it if you could say whether C3U A45U has self-cleavage at least equal to 0.2.
Reply: 0 (no)

Ask: Check if self-cleavage >= 0.2 (inclusive). Item: C4G G51A
Reply: 1 (yes)
